Task for the reader: assign each of the following binders its reported binding ratio to unstained cells.
# tgt: T1, full-length human KLB on HEK293/hKLB/SRE-luc cells (human, UniProt Q86Z14 1-1044)
# T1 construct: amino acids 1-1044 of NP_783864.1
# T1 sequence: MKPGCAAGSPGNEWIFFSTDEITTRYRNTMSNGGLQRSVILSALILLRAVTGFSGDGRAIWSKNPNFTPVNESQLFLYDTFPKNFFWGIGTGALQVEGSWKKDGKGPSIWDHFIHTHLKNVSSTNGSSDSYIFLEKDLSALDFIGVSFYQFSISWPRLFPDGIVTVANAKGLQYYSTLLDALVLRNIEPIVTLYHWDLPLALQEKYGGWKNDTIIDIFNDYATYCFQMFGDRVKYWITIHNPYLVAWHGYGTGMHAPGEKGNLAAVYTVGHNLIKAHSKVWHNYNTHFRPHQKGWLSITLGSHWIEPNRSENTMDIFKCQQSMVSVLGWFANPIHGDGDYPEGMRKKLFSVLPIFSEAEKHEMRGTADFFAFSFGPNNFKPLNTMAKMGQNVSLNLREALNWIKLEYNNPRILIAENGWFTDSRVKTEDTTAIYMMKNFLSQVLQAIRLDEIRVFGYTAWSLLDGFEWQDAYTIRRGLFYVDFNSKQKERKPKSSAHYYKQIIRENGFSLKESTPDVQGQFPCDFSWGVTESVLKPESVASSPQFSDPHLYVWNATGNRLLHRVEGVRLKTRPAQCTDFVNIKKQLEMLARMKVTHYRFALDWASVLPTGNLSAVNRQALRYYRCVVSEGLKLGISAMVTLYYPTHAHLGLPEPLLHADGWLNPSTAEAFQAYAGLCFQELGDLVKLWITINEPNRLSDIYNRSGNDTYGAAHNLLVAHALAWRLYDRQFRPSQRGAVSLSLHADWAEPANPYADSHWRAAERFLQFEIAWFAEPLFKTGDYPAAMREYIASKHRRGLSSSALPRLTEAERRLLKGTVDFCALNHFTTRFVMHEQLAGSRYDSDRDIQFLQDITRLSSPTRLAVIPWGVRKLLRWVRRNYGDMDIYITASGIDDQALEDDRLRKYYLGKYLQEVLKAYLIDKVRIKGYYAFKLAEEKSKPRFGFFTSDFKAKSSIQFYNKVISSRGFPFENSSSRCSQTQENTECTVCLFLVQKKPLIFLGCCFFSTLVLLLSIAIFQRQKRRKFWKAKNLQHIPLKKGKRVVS
# method.description: FACS on stable HEK293 cells
One number for each entry, in fold.

Record excerpt, results attached:
1. H4H8880P (antibody, V domains shown, human IgG4 Fc (H4H prefix)) VH: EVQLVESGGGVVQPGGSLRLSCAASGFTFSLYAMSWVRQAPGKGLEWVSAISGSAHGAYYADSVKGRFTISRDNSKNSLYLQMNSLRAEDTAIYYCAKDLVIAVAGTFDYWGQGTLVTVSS VL: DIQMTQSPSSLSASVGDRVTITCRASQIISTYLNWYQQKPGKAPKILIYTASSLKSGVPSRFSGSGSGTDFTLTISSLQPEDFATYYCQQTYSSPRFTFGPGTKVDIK :: 14
2. H2aM8093N (antibody, V domains shown, mouse IgG2 Fc (H2aM prefix)) VH: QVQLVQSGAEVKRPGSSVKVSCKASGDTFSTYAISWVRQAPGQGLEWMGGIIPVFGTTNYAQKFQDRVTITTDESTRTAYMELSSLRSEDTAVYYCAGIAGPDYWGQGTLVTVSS VL: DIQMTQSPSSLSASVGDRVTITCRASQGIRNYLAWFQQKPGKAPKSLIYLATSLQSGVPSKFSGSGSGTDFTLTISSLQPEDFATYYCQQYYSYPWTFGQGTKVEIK :: 15

Now for the binder whose binding ratio to unstained cells we want.
Recorded binding ratio to unstained cells for H2aM8091N (antibody, V domains shown, mouse IgG2 Fc (H2aM prefix); also called H2M8091N) VH: QVQLVQSGADMKKPGASVKVSCKASGYTFTTYGINWVRQAPGQGLEWMGWISAYSGITNYAQSFQGRVTMTTDTSTSTAYMELRSLRSDDTAVYYCARGGYNWATGDYFDYWGQGTLVTVSS VL: DIQMTQSPSTLSASIGDRVTITCRASQSISSWLAWYQQKPGKAPKFLIYKASSLASGVPSRFSGSGSGTEFTLTISSLQPDDFATYYCQQYDSYSPYTFGQGTKVEIK , please?
8
